Attribution: the nanobody polyreactivity screen of Harvey et al. (2022)

# experimental-protocol: yeast display, Sf9 membrane polyspecificity reagent, FACS + sequencing; frameworks hold sequencing errors
measured-quantity: polyreactivity (PSR sort gate)

sequence-data: QVQLVESGGGLVQAGGSLRLSCAASGNTFYGYAMGWYRQAPGKERELVASITLSGDSMYYADSVKGRFTISRDNAKNTVYLQMNSLIPDDTAVYYCNADWYFQYPYDYWGQGTQVSVSS
polyreactivity (PSR sort gate): low polyreactivity
--
sequence-data: QVQLVESRGGLVQAEGSLRLSCAASGYTFTSNDMGWYRQAPGKERELVAAITWSGGTTYYADSVKGRFTISRDNAKNTVYLQMNSLKPEDTSVYYFAADVSLVYPYSYRYYYWGQGTQVTVSS
polyreactivity (PSR sort gate): low polyreactivity
--
sequence-data: QDQLVESVGGLDQAGGSLRLSSAASGRTFWWNAMGWYRQAPGKERELVAVISYSGGSTYYADSVKGRFTISRDNAKNTVYLQMNSLKPEDTAVYYCAAATRVRGFTEYYWGQGTQVTVSS
polyreactivity (PSR sort gate): high polyreactivity
--
sequence-data: QVQLVESGGGLVQAGGSLRLSCAASGRTFFVNAMGWYRPAPGKERELVAAITWSGGSTYYADSVKGRFTISRDNAKNTVYLQMNSLKAEDTAVYYCNADYQWYLGGYDYWGQGTQVTVSS
polyreactivity (PSR sort gate): high polyreactivity

Pending sequence:
Given the sequence QVQLVESGGGLVQAGGSLRLSCAASGFIFPRYAMGWYRQAPGQERELVAAISKSGGRTYYADSGKGRFTISRDYAKNTFYLQMNSLNPEDTAVYYCAAGRISRFSRYYYWGQGTQVTVSS , what is its reported polyreactivity (PSR sort gate)?
high polyreactivity

---

# experimental-protocol: yeast display, Sf9 membrane polyspecificity reagent, FACS + sequencing; frameworks hold sequencing errors
measured-quantity: polyreactivity (PSR sort gate)

sequence-data: QVQLVESGGGLVQAGGSLRLSCAASGNTFYGYAMGWYRQAPGKERELVASITLSGDSTYYADSVKGRFTISRDNAKNTVYLQMNSLKPEDTAVYDCAGVYTYPLGYYHYTYDYWGQGTQVTVSS
polyreactivity (PSR sort gate): low polyreactivity

sequence-data: QVQLVESGVGLVQAGGSLRLSCAASGSTFRGYAMGWYRQAPGKERELVAAISSSGGRTYYAYSVKGRFTISRDNAKNTVYLQMNSLKPEDTAVYYCNAASKNSVRYAYQNYDYWGQGTQVTVSS
polyreactivity (PSR sort gate): high polyreactivity

sequence-data: QVQLVESGGGLVQAGGSLRLSCAASGRIFGYYAMGWYRQAPGKERELVAAISWTGASTYYADSVKGRFTISRDNAKNTVYLQMNSLKPEDTAVYYCAVDRGLDYYWGQGTQVTVSS
polyreactivity (PSR sort gate): high polyreactivity

sequence-data: QVQLVESGGGLVQAGGSLRLSCAASGITFQNYAMGWYKQAPGKERELVAAITRSGGRTYYADSVKGRFTISRDNAKNTVYLQMNSLKPEDTAVYYCAVYGIGRPYWYDYWGQGTQLTVSS
polyreactivity (PSR sort gate): high polyreactivity

sequence-data: QVQLVESGGGLVQAGGSLRLSCAASGIIFTSNTMGWYRQAPGKEREFVASINWNGSSTYADSVKGRFTISRDNAKNTVYLQMNSLKPEDTAVYYCAAEASPRLYRKYDYWGQGTQVTVSS
polyreactivity (PSR sort gate): low polyreactivity

I'm hoping you can list polyreactivity (PSR sort gate) for every sequence here, please.
1. QFQLVESGGGLVQAGGSLRLSCAASGSTFTANAMGWYRQSPGKERELVAAITNSDGSTYYADSVKGRFTISRDNAKNTVYLQMNSLKPEDTAVYYCAKDYYACYWEMDYWGQGTQVTVSS
2. QFQLVESGGGLVQAGGSHRLICAASGRTFPYYAKGWYRQAPGKERELVATINTGTSTNYADSVKGRFTISRDNANNTVYLQMHSLKPEDTAVYYCAAATTYGKSEYDYWGQGTQVTVSS

1. low polyreactivity
2. high polyreactivity
